Item-by-item account of Percent Control
Tested on: DDR2
Conditions: Compound Concentration (nM):1000;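 note: KINOMEscan scanMAX binding as percent activity remaining versus control; lower means stronger binding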
Number only, in %; omit the unit.

The cases that follow already have their Percent Control on record.
COc1ccccc1-c1cc(/C=C2\C(=O)Nc3ncc(Br)cc32)cc(Br)c1O [GW442130X]; 100
Cl.O=S1CCN(Cc2ccc(-c3ccc4ncnc(Nc5ccc(OCc6ccccc6)c(F)c5)c4c3)o2)CC1 [GW576924A]; 100
COc1cccc(-n2ncc3c(N/N=C/c4ccncc4)ncnc32)c1 [GW784752X]; 100
CC1=C(C(=O)Nc2ccc3[nH]ncc3c2)C(c2ccc(Cl)c(Cl)c2)CC(=O)N1 (stereo not drawn) [GSK299115A]; 81
NS(=O)(=O)c1ccc(Nc2ncc(-c3ccccc3)o2)cc1 [GW572399X]; 100

Briefly, Percent Control measured for O=C1Nc2ccc(C(=O)c3ccco3)cc2C1=Cc1cc(Cl)c(O)c(Cl)c1 [GW406108X] : 93

Entry COc1cc2ncnc(Nc3ccc4c(cnn4Cc4ccccc4)c3)c2cc1OC.Cl [GW282449A] , Percent Control reported as 100

// COc1cc(/C=N/Nc2ncnc3[nH]ncc23)ccc1O [GW578748X] : Percent Control value = 100

Looking up `O=C(Nc1n[nH]c2nc(-c3ccc(O)cc3)c(Br)cc12)C1CC1` , I see its Percent Control listed as 100

====

Tested on: KIT
Conditions: Compound Concentration (nM):1000
MEASUREMENT_LABEL: Percent Control (%)
Kindly answer with a numeric value in %, unit omitted.

Some molecules with recorded Percent Control:
CCS(=O)(=O)c1ccc(OC)c(Nc2ncc(-c3cccc(OC)c3)o2)c1 [GW580509X]; 9.1
CC1=C(C(=O)Nc2ccc3[nH]ncc3c2)C(c2ccc(Cl)c(Cl)c2)CC(=O)N1 (centres unmarked) [GSK299115A]; 100
C[C@@H](Oc1cc(-n2cnc3ccc(OC4CCN(C)CC4)cc32)sc1C(N)=O)c1ccccc1Cl [GSK579289A]; 32
COc1cc(/C=N/Nc2ncnc3[nH]ncc23)ccc1O [GW578748X]; 56
Cl.O=C(Nc1ccc(Oc2ccc3[nH]c(NC(=O)c4ccco4)nc3c2)cc1)Nc1cc(C(F)(F)F)ccc1F [GW683134A]; 0.4
CCn1c(-c2nonc2N)nc2c(C#CC(C)(C)O)nc(OCCNC)cc21.Cl [GSK949675]; 100
COc1ccc2[nH]c3c4[nH]c5ccc(OC)cc5c4c4c(c3c2c1)C(=O)NC4=O [GW296115X]; 24

Here's the next entry for you.
GET /value?item= COc1cccc(-n2ncc3c(N/N=C/c4ccncc4)ncnc32)c1 [GW784752X] &field=Percent Control returns 91

====

Test system: ERK8
Construct: gene MAPK15
Conditions: Compound Concentration (nM):1000
MEASUREMENT_LABEL: Percent Control (%)
Field format: number, assumed %, no unit text.

Reference set (5 entries):
NS(=O)(=O)c1ccc(N/N=C2\C(=O)Nc3ccc(Cl)cc32)cc1 [GW280670X]; 59
COc1cccc(-n2ncc3c(N/N=C/c4ccncc4)ncnc32)c1 [GW784752X]; 17
COc1ccc2[nH]c3c4[nH]c5ccc(OC)cc5c4c4c(c3c2c1)C(=O)NC4=O [GW296115X]; 58
COc1cc(/C=N/Nc2ncnc3[nH]ncc23)ccc1O [GW578748X]; 93
CCS(=O)(=O)c1ccc(OC)c(Nc2ncc(-c3cccc(F)c3)o2)c1 [GW621970X]; 100

The molecule listed as NS(=O)(=O)c1ccc(Nc2ncc(-c3ccccc3)o2)cc1 [GW572399X] has a reported Percent Control of 28

Percent Control in this record for Nc1ncnc2occ(-c3ccc(NC(=O)Nc4cc(C(F)(F)F)ccc4F)cc3)c12 [GW770249X] : 2.4

In plain terms, CN(C)c1cc2c(Nc3ccc4c(cnn4Cc4ccccc4)c3)ncnc2cn1 [GW282974X] has a documented Percent Control of 87

The reported value for NS(=O)(=O)c1ccc(N/N=C2\C(=O)Nc3ccc(C(=O)NCc4ccncc4)cc32)cc1 [GW300657X] in terms of Percent Control is 4
